Hi there, I'd appreciate the recorded kobs /[I] for DPP-IV for every entry that follows.
# TARGET: Human Placenta DPP-IV (Homo sapiens, UniProt P27487)
# Construct: from tissue; host or cells: human placenta
# Sequence (P27487 whole entry): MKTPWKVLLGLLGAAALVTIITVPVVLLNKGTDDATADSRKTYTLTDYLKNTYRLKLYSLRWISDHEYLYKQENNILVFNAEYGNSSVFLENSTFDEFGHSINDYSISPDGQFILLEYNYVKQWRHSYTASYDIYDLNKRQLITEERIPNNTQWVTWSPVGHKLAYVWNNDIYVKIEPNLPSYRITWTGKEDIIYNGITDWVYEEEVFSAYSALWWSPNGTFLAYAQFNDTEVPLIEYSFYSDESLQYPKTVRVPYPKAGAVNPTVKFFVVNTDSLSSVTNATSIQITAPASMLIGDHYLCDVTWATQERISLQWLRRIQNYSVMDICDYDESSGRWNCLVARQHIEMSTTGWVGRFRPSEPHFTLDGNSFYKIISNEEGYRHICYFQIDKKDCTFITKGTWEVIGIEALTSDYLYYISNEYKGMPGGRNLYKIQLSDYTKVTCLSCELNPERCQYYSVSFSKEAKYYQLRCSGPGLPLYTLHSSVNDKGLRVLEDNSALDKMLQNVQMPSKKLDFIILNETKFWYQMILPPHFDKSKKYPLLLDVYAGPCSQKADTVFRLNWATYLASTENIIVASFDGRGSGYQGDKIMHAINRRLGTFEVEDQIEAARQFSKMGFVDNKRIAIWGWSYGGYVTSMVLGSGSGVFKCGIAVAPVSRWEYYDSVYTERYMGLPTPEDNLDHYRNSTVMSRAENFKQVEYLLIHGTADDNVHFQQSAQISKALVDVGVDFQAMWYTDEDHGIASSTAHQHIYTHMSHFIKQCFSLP
# EXPERIMENTAL PROTOCOL: Inhibition of DPP-IV by peptidyl phosphonates, incubation method
# Assay type: biochemical
# ASSAY CONTEXT: [I] 0.42 mM; 0.05 M Tris pH 7.8, 8% Me2SO, 23° C.; substrate TFA.Ala-Pro-AFC 0.2 mM
Kindly report the value followed by its unit.

Some solved cases for reference:
{"COMPOUND": "Br.Br.NCCCC[C@H](N)C(=O)N1CCCC1P(=O)(Oc1ccccc1)Oc1ccccc1 (stereo partly drawn)", "RESULT": "1.7 M⁻¹ s⁻¹"}
{"COMPOUND": "Cl.Cl.NCCCC[C@H](N)C(=O)N1CCCCC1P(=O)(Oc1ccccc1)Oc1ccccc1 (stereo partly drawn)", "RESULT": "4.2 M⁻¹ s⁻¹"}
{"COMPOUND": "CC(=O)O.C[C@H](N)C(=O)N1CCCCC1P(=O)(Oc1ccccc1)Oc1ccccc1 (stereo partly drawn)", "RESULT": "12.6 M⁻¹ s⁻¹"}
{"COMPOUND": "C[C@H](N)C(=O)N1CCCC1P(=O)(Oc1ccccc1)Oc1ccccc1.Cl (stereo partly drawn)", "RESULT": "1.2 M⁻¹ s⁻¹"}
{"COMPOUND": "C[C@H](N)C(=O)N1CCCCC1P(=O)(Oc1ccc(F)cc1)Oc1ccc(F)cc1.Cl (stereo partly drawn)", "RESULT": "12 M⁻¹ s⁻¹"}

Prompt line: Recorded kobs /[I] for DPP-IV of C[C@H](N)C(=O)N1CCCC1P(=O)(Oc1ccc(Cl)cc1)Oc1ccc(Cl)cc1.Cl (stereo partly drawn) , please.
Response line: 28 M⁻¹ s⁻¹

---

# TARGET: Human Placenta DPP-IV (Homo sapiens, UniProt P27487)
# Construct: from tissue; host or cells: human placenta
# EXPERIMENTAL PROTOCOL: Inhibition of DPP-IV by peptidyl phosphonates, incubation method
# Format: biochemical
# ASSAY CONTEXT: [I] 0.12 mM; 30 min incubation; 0.05 M Tris pH 7.8, 5% Me2SO, 23° C.; substrate TFA.Ala-Pro-AFC 0.190 mM
Hi there, I'd appreciate the recorded % Inhibition 30 min for every entry that follows.

Some solved cases for reference:
{"MOLECULE": "Cl.Cl.NCCCC[C@H](N)C(=O)N1CCCCC1P(=O)(Oc1ccccc1)Oc1ccccc1 (some centres unmarked)", "TARGET": "Human Placenta DPP-IV (Homo sapiens, UniProt P27487)", "% Inhibition 30 min": "88%"}
{"MOLECULE": "CC(=O)O.C[C@H](N)C(=O)N1CCCCC1P(=O)(O)Oc1ccccc1 (some centres unmarked)", "TARGET": "Human Placenta DPP-IV (Homo sapiens, UniProt P27487)", "% Inhibition 30 min": "0%"}
{"MOLECULE": "Br.N[C@@H](Cc1ccccc1)C(=O)N1CCCC1P(=O)(Oc1ccccc1)Oc1ccccc1 (some centres unmarked)", "TARGET": "Human Placenta DPP-IV (Homo sapiens, UniProt P27487)", "% Inhibition 30 min": "0%"}
{"MOLECULE": "CC(=O)O.C[C@H](N)C(=O)N1CCCCC1P(=O)(Oc1ccccc1)Oc1ccccc1 (some centres unmarked)", "TARGET": "Human Placenta DPP-IV (Homo sapiens, UniProt P27487)", "% Inhibition 30 min": "100%"}
{"MOLECULE": "C[C@H](N)C(=O)N1CCCC1P(=O)(Oc1ccc(Cl)cc1)Oc1ccc(Cl)cc1.Cl (some centres unmarked)", "TARGET": "Human Placenta DPP-IV (Homo sapiens, UniProt P27487)", "% Inhibition 30 min": "100%"}

Could you report % Inhibition 30 min for every entry in the following list?
1. Br.Br.NCCCC[C@H](N)C(=O)N1CCCC1P(=O)(Oc1ccccc1)Oc1ccccc1 (some centres unmarked)
2. C[C@H](N)C(=O)N1CCCC1P(=O)(Oc1ccccc1)Oc1ccccc1.Cl (some centres unmarked)

Response line:
1. 0%
2. 33%

Prompt line: Tell me the measured % Inhibition 30 min of C[C@H](N)C(=O)N1CCCCC1P(=O)(Oc1ccc(Cl)cc1)Oc1ccc(Cl)cc1.Cl (some centres unmarked) , please.
Response line: 100%

Value source: patent US5543396A
